# assay.text: Agonist activity at AHR in FVB/N mouse primary mammary epithelial cells assessed as blockade of mammary branching morphogenesis after 144 hrs by microscopic analysis in presence of FGF2
Record form. Attribute: EC50. Fill in for each entry.
Could you give me the number in nM? Just the number is fine.

Sample `Clc1ccc(-c2nc(-c3ccccc3)no2)c(Cl)c1` — what was its EC50? 1200

Sample `Nc1cc(Cl)ccc1-c1nc(-c2ccccc2)no1` — what was its EC50? 1400

Sample `O=[N+]([O-])c1cc(F)ccc1-c1nc(-c2ccccc2)no1` — what was its EC50? 2200

Sample `Nc1cc(C(F)(F)F)ccc1-c1nc(-c2ccccc2)no1` — what was its EC50? 3200
